Test system: XIP peptide (Xip251-270) binding
Assay explanation: small-molecule binders of XIP peptide, primary screen, biochemical, small-molecule microarray, fluorescence 635/667 nm, 0.1 µg/mL protein (AID 1182)
Assay setup: fluorescent protein binding, 635 nm, higher = more signal, called active from +8 up or from −8 down
Provide the reported composite z-score of each item.
# respond with the number and nothing more

The compound listed as COCCCNC(=O)[C@@]1(C)c2ccccc2C(=O)N(C(C)C)[C@H]1c1ccc(CO)cc1 has a reported composite z-score of -0.102

Value of composite z-score reported for the compound CC(CO)N1C(=O)[C@@H]2C3C(=O)OCCC/C=C\[C@H]3OC23C=CCN(C(C)(C)C)C(=O)[C@@H]13 (some centres not stated) is 0.453

Record summary for [N-]=[N+]=NCc1ccccc1C[C@]1(C(=O)N2CCCCC2)N=C(c2ccc(OCCCO)cc2)O[C@H]1c1ccccc1N=[N+]=[N-] : reported composite z-score = 0.113

Reported composite z-score of COc1ccc([Si](C)(C)[C@H]2[C@H](CCO)O[C@@]3(C(=O)N(Cc4ccc(N(C=O)c5ccccc5)cc4)c4ccccc43)[C@@H]2C)cc1 : 0.381

Reported composite z-score for O=C1N[C@@H](Cc2ccccc2)C(=O)N2[C@@H]1C[C@@H](C(=O)O)[C@H]2c1cccc(OCCO)c1 was 0.779

The value of composite z-score measured for the compound CC(C)[Si]1(C(C)C)O[C@@H](c2ccccc2)c2cc(-c3ccc(-c4ccc(Cl)c(Cl)c4)o3)nc(-c3ccccc3)c21 turned out to be -0.142

Entry C=C(/C(=C/C[C@H](OC(C)=O)c1ccccc1OCCO)c1cnc2ccccc2c1)C(C)C ; composite z-score = 0.609

* * *

For each entry below, report its composite z-score value.
Target desc: Dickkopf-related protein 1 (Homo sapiens) (UniProt O94907)
Sequence (O94907 whole entry, looked up): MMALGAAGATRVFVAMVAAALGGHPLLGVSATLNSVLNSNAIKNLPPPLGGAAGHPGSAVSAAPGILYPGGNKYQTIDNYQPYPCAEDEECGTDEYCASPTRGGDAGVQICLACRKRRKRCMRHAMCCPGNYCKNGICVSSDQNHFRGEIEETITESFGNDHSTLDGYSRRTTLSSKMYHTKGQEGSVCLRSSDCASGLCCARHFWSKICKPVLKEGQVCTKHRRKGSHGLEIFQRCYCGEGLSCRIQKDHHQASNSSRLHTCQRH
Assay explanation: DKK1 binders on small-molecule microarrays, primary screen, biochemical, small-molecule microarray, 635 nm fluorescence scan (AID 1106);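 note: score merges emission near 667 nm with signal to noise over three replicate slides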
Assay setup: DKK1 binding, higher = more signal
Please reply with the value in numeric form only.

Entry C=CCOC(=O)[C@@H]1[C@H]2C(=O)O[C@H](c3ccccc3)[C@H](c3ccccc3)N2[C@H](c2ccc(OCCOC(=O)[C@@H]3C[C@@H]4C(=O)NCC(=O)N4[C@@H]3c3ccc(O)cc3)cc2)[C@@]12C(=O)Nc1ccc(I)cc12 — recorded composite z-score = 0.82

The compound listed as CCOC(=O)C1=CC[C@@H](c2ccccc2)N(S(=O)(=O)c2ccc(C)cc2)[C@H]1c1ccccc1C has a reported composite z-score of 0.349

Record C=CCC(OC(C)=O)[C@@H]1[C@@H](N(Cc2ccc(-c3ccccc3)cc2)C(=O)c2cccc3ccccc23)c2cc(OCCCO)ccc2N1C(=O)c1ccc(-c2ccccc2)cc1 (some centres not stated) . Reported composite z-score: -0.111

composite z-score for C[N+](C)(C)CCCC[C@@H]1NC(=O)[C@H]2C[C@@H](C(=O)NCCCCCCNC(=O)CS)[C@@H](c3cccc(OCCO)c3)N2C1=O is -0.602

# composite z-score of CCCC[C@@H]1C[C@H]1[C@@H](NC(=O)c1cccs1)c1ccc(-c2ccccc2)cc1 = -0.116

Item: O=C1N(Cc2ccccc2)c2ccccc2[C@@H]2OC(c3ccc(OCCCO)cc3)=N[C@]12CCS(=O)(=O)c1ccccc1 | composite z-score: 0.0435

Value of composite z-score reported for the compound O=C1O[C@H](c2ccccc2)[C@H](c2ccccc2)N2[C@H]1[C@@H](C(=O)N1CCCCCCC1)[C@]1(C(=O)Nc3ccc(C#CC4=CCCCC4)cc31)[C@H]2c1ccc(OCCO)cc1 is 2.4

* * *

Target desc: Calmodulin-1 (Homo sapiens)
Assay explanation: calcium-bound CALM1 binders on microarrays, profiling panel, artefact control for SMM control-protein annotation, biochemical, small-molecule microarray, Cy5-labelled CALM1, plus calcium (AID 1112);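 note: score merges spot fluorescence with signal to noise from triplicate slides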
Assay setup: Cy5-CALM1 binding fluorescence, higher = more signal
Property: composite z-score
Give only the figure.

The compound listed as CCCC#C[Si](O[C@H](CC)c1cn(Cc2cccc(Cl)c2)nn1)(C(C)C)C(C)C shows composite z-score equal to 0.169

The compound identified as CCCC[C@H]1OB(O)C[C@H]2C1=C(COC)Cn1c(=O)n(-c3ccccc3)c(=O)n12 registered its composite z-score at -0.421

Record CCCCCN1CC=CC23O[C@@H]4C=CCCOC(=O)C4[C@H]2C(=O)N(CCCCCO)[C@@H]3C1=O (stereo partly specified) . Reported composite z-score: -0.578

# compound O=C1O[C@@H](c2ccccc2)[C@@H](c2ccccc2)N2[C@@H](c3ccccc3OCCO)[C@]3(C(=O)Nc4ccccc43)[C@@H](C(=O)Nc3nc4ccccc4s3)[C@H]12 ; its composite z-score = 0.494

Per the record, O=C1OCCC/C=C\[C@H]2OC34C=CCN(Cc5ccccc5)C(=O)[C@H]3N(CCCO)C(=O)[C@@H]4C12 (stereo partly specified) has composite z-score of 0.464

Documented composite z-score of Cc1ccc(S[C@]2(C(=O)NCCCN(C)C)CC(=O)N(Cc3cc(C(F)(F)F)cc(C(F)(F)F)c3)[C@@H]2c2ccc(CO)cc2)cc1 : 0.499

Entry under test: C=C(COC)/C(=C/C[C@@H](OC(=O)c1ccncc1)c1ccc(CO)o1)c1cc(C(=O)OC)ccc1OC . Its composite z-score was -0.708

Note to self: composite z-score recorded for Cc1ccc(S[C@]2(C(=O)NC3CC3)CC(=O)N(Cc3ccccc3)[C@@H]2c2ccc(CO)cc2I)cc1 was -0.149

Sample CCCCCN1CC=CC23O[C@@H]4/C=C\CCC(C)OC(=O)C4[C@H]2C(=O)N(C(C)CO)[C@@H]3C1=O (stereo partly specified) ; composite z-score observed: -1.04

composite z-score reported for this compound COc1ccc([C@H]2OC[C@@H]3C[C@@H](Cc4ccccc4)C(=O)N32)cc1 : -0.317

Looking up CCCC=C(CCC)[C@@H](NC(=O)c1cccs1)c1ccc(C(F)(F)F)cc1 , I see its composite z-score listed as 0.522

compound C=C(C(=O)CC[C@@H](OC(=O)c1cccnc1)c1ccccc1OCCO)C(C)C , composite z-score observed: -0.895

// CC1(C)[C@@H]2CC(C(O)C3C=CC4C(=O)N(Cc5ccccc5)C(=O)C4N3n3cnnc3)=C[C@H]1C2 (stereo partly specified) : composite z-score value = -0.0552

The compound listed as CCC[C@@H]1C[C@@]1(CCC)[C@@H](NS(=O)(=O)c1cccc2cccnc12)c1ccc(Cl)cc1 shows composite z-score equal to 1.28

composite z-score measured on COCCOC(=O)N1C(=O)[C@@]2(c3ccccc31)[C@H](c1ccccc1OCCO)N1[C@H](c3ccccc3)[C@H](c3ccccc3)OC(=O)[C@H]1[C@@H]2C(=O)N1CCN(c2ncccn2)CC1 = 0.614

The compound listed as O=C1C[C@@](C(=O)NC2CC2)(c2ccc([N+](=O)[O-])cc2)[C@@H](c2ccc(CO)cc2I)N1C1CCCCC1 has a reported composite z-score of -0.183

* * *

Assay explanation: COS7 lysate on small-molecule microarray, probe aHis, 635 nm (AID 1123);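 note: z-score combines 667nm fluorescence intensity with signal-to-noise per printed compound spot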
Assay setup: COS7 cell lysate, fluorescence, higher = more signal
# binarize composite z-score: threshold 0.5 inclusive, high side T, low side F

*Q* Does CCCCCCc1nc(-c2ccc(OC)nc2)cc2c1[Si](C(C)C)(C(C)C)O[C@H]2c1ccccc1 have a reported composite z-score of at least 0.5?
*A* F

*Q* Tell me whether composite z-score is at least 0.5 here: CN1C(=O)C2C=CC(C(O)C#Cc3ccccc3)N(N3CCCCC3)C2C1=O (stereo not given)
*A* F

*Q* Kindly determine if composite z-score recorded for O=C1OCCC/C=C\[C@H]2OC34C=CCN(Cc5ccccc5)C(=O)[C@H]3N(CCCO)C(=O)[C@@H]4C12 (stereo not given in full) is above or exactly 0.5.
*A* F

*Q* Could you tell me if the measured composite z-score of CC(C)=CCN[C@H](CO)c1ccccc1 reaches 0.5 or more?
*A* F

*Q* Does the reported composite z-score for COc1cc2c(cc1OC)CN(C(=O)[C@@H]1[C@H]3C(=O)O[C@H](c4ccccc4)[C@H](c4ccccc4)N3[C@H](c3ccc(O)cc3)[C@@]13C(=O)Nc1ccccc13)CC2 fall at or above the 0.5 mark?
*A* T

*Q* Record CCCC[C@@H]1C[C@H]1[C@@H](NC(=O)C(C)(C)C)c1ccc(C(F)(F)F)cc1 ; criterion: composite z-score no lower than 0.5. Met?
*A* T

*Q* Given the entry O=C1O[C@H](c2ccccc2)[C@H](c2ccccc2)N2[C@H]1[C@@H](C(=O)N1CCCCCCC1)[C@]1(C(=O)Nc3ccc(C#CC4=CCCCC4)cc31)[C@H]2c1ccc(OCCO)cc1 , answer whether its composite z-score meets or surpasses 0.5.
*A* T

*Q* Does the reported composite z-score for C=C(COC)/C(=C/C[C@@H](OC(C)=O)c1ccc(OCCO)cc1)c1cnc2ccccc2c1 fall at or above the 0.5 mark?
*A* F

*Q* Dear colleague, could you confirm whether C=C[C@H](OC)[C@@H](OC(=O)Nc1ccc(OC)cc1)c1ccc(O)c(F)c1 has composite z-score at or above 0.5?
*A* T

*Q* Confirm if composite z-score reported for the molecule COc1ccc(C#Cc2ccc3c(c2)[C@]2(C(=O)N3)[C@H](C(=O)Nc3nc4ccccc4s3)[C@H]3C(=O)O[C@H](c4ccccc4)[C@H](c4ccccc4)N3[C@@H]2c2ccc(O)cc2)cc1 is 0.5 or above.
*A* T

*Q* Test whether the molecule NC(=O)NCC#Cc1ccc2c(c1)[C@]1(C(=O)N2)[C@H](c2ccccc2OCCO)N2[C@H](c3ccccc3)[C@H](c3ccccc3)OC(=O)[C@H]2[C@@H]1C(=O)Nc1nc2ccccc2s1 records composite z-score of 0.5 or higher.
*A* T

*Q* Identify whether the reported composite z-score of the following molecule is 0.5 or greater: COc1ccc([C@H]2OC[C@@H]3C[C@@H](Cc4ccccc4)C(=O)N32)cc1
*A* F

*Q* Confirm if composite z-score reported for the molecule O=C1c2ccccc2[C@](Cc2ccccc2I)(C(=O)NCC(F)(F)F)[C@H](c2ccc(CO)cc2)N1Cc1ccccc1Cl is 0.5 or above.
*A* T

*Q* Evaluate COc1ccc([Si](C)(C)[C@@H]2[C@@H](CCO)O[C@]3(C(=O)N(Cc4ccc(N(C=O)c5ccccc5)cc4)c4ccccc43)[C@H]2C)cc1 : composite z-score at minimum 0.5?
*A* F
